- SYSTEM TESTED: VHL30 (Homo sapiens, UniProt P40337)
- Sequence (P40337 whole entry): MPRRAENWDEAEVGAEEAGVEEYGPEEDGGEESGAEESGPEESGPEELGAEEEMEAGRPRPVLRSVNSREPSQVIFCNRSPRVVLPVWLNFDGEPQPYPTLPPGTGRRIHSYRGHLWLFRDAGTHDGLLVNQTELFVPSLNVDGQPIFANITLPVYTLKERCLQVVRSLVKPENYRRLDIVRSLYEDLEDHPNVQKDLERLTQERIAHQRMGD
- ASSAY SUMMARY: Immunoblotting (western blot) quantification of VHL30 levels in MM.1S cells
- CONDITION DESCRIPTION: MM1.S, 16 h, read-out: %remaining protein VHL30
Some molecules, each annotated with its measured remaining activity at 0.1 µM.
Form entry: value (%) — number only.

Below are worked cases with known answers.
**Q:** Param item = "CN[C@@H](C)C(=O)N[C@H](C(=O)N1C[C@@H](Oc2cccc(OCCCCCCOCCCCCCOCC(=O)N[C@H](C(=O)N3C[C@H](O)C[C@H]3C(=O)NCc3ccc(-c4scnc4C)cc3)C(C)(C)C)c2)C[C@H]1C(=O)N[C@@H]1CCCc2ccccc21)C1CCCCC1" ; retrieve measured remaining activity at 0.1 µM.
**A:** 78

**Q:** So what's the measured remaining activity at 0.1 µM for this one? "CN[C@@H](C)C(=O)N[C@H](C(=O)N1C[C@@H](Oc2cccc(OCCCCCCOCCCCCOCCCCCOc3cc(-c4scnc4C)ccc3CNC(=O)[C@@H]3C[C@@H](O)CN3C(=O)[C@H](C(C)C)N3Cc4ccccc4C3=O)c2)C[C@H]1C(=O)N[C@@H]1CCCc2ccccc21)C1CCCCC1"
**A:** 88

# context switch: different molecule, same remaining activity at 0.1 µM
**Q:** Query (molecule): "CN[C@@H](C)C(=O)N[C@H](C(=O)N1C[C@@H](Oc2cccc(OCCCCCCOCCCCCCOCCCCCCOc3cc(-c4scnc4C)ccc3CNC(=O)[C@@H]3C[C@@H](O)CN3C(=O)[C@H](C(C)C)N3Cc4ccccc4C3=O)c2)C[C@H]1C(=O)N[C@@H]1CCCc2ccccc21)C1CCCCC1" ; field requested: remaining activity at 0.1 µM
**A:** 95
